ASSAY_SYSTEM: human SGLT1 (Homo sapiens, UniProt P13866)
Construct: expressed in transfected cells
TEST: SGLT1 in vitro assay: Na-dependent 14C-AMG uptake in CHO-K1 cells stably expressing human SGLT1
Assay type: cell-based
CONDITION_DESCRIPTION: CHO-K1 cells stably expressing human SGLT1; 14C-AMG uptake; compounds of formula (I) where R0 is fluoro
pIC50: −log10 of the molar value.
REPORTED_METRIC: pIC50

# SMILES_DATA, ASSAY_SYSTEM, pIC50
records = [
    ("COc1cc(Cl)c(Cc2cc3ccccc3s2)cc1[C@@H]1O[C@H](CO)C(F)(F)[C@H](O)[C@H]1O", "human SGLT1 (Homo sapiens, UniProt P13866)", 6.66),
]

I = OC[C@H]1O[C@@H](c2cc(Cc3ccc4c(c3)OCC4)c(Cl)cc2O)[C@H](O)[C@@H](O)C1(F)F
II = CCc1ccc(Cc2cc([C@@H]3O[C@H](CO)C(F)(F)[C@H](O)[C@H]3O)c(O)cc2C)cc1
For this pair, I and II , which shows a numerically higher pIC50? I would appreciate it if you answered with the label of your choice. I

---

ASSAY_SYSTEM: human SGLT2 (Homo sapiens)
Construct: expressed in transfected cells
Sequence (P31639 1-672): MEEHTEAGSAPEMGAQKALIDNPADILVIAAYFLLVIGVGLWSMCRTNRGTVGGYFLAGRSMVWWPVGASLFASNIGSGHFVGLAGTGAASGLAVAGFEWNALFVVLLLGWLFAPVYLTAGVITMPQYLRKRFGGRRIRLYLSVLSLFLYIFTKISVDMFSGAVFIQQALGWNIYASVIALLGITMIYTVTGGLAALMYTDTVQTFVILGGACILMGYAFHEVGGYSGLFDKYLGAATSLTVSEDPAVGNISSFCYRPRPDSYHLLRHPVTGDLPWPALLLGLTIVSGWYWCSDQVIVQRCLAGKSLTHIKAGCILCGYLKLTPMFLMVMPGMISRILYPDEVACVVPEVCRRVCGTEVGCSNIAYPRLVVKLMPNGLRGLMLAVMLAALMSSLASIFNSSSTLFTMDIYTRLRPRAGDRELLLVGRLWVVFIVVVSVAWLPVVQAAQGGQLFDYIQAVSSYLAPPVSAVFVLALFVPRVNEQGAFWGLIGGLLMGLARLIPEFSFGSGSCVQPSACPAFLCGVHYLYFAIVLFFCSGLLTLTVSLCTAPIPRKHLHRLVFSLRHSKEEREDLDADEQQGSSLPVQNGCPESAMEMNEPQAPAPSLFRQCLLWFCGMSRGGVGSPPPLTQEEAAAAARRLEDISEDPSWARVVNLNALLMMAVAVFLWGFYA
TEST: SGLT2 in vitro assay: Na-dependent 14C-AMG uptake in CHO-K1 cells stably expressing human SGLT2
Assay type: cell-based
CONDITION_DESCRIPTION: CHO-K1 cells stably expressing human SGLT2; 14C-AMG uptake; compounds of formula (I) where R0 is fluoro
pIC50: −log10 of the molar value.
REPORTED_METRIC: pIC50

Solved cases (6 shown):
# SMILES_DATA, ASSAY_SYSTEM, pIC50
rows = [
    ("COc1cc(Cl)c(Cc2ccc(Cl)cc2)cc1[C@@H]1O[C@H](CO)C(F)(F)[C@H](O)[C@H]1O", "human SGLT2 (Homo sapiens)", 9.05),
    ("Cc1cnc(C(=O)N2CCc3sc(Cc4cc([C@@H]5O[C@H](CO)C(F)(F)[C@H](O)[C@H]5O)c(O)cc4C)cc3C2)s1", "human SGLT2 (Homo sapiens)", 8.01),
    ("Cc1cc(O)c([C@@H]2O[C@H](CO)C(F)(F)[C@H](O)[C@H]2O)cc1Cc1ccc2c(c1)OCCO2", "human SGLT2 (Homo sapiens)", 8.70),
    ("COc1ccc(Cc2cc([C@@H]3O[C@H](CO)C(F)(F)[C@H](O)[C@H]3O)c(O)cc2Cl)cc1", "human SGLT2 (Homo sapiens)", 8.96),
    ("COc1ccc(Cc2cc([C@@H]3O[C@H](CO)C(F)(F)[C@H](O)[C@H]3O)c(O)cc2OC)cc1", "human SGLT2 (Homo sapiens)", 8.49),
    ("CCc1ccc(Cc2cc([C@@H]3O[C@H](CO)C(F)(F)[C@H](O)[C@H]3O)c(OC)cc2OC)cc1", "human SGLT2 (Homo sapiens)", 8.17),
]

P = COc1cc(O)c([C@@H]2O[C@H](CO)C(F)(F)[C@H](O)[C@H]2O)cc1Cc1ccc2c(c1)CCCO2
Q = CCc1cc(OC)c([C@@H]2O[C@H](CO)C(F)(F)[C@H](O)[C@H]2O)cc1Cc1ccc(OC)cc1
Identify the entry with the smaller pIC50: P or Q . Your answer should be the label of the entry you select. Q
(Q: 8.33, P: 8.89)

---

ASSAY_SYSTEM: human SGLT1 (Homo sapiens)
Construct: expressed in transfected cells
TEST: SGLT1 in vitro assay: Na-dependent 14C-AMG uptake in CHO-K1 cells stably expressing human SGLT1
Format: cell-based
CONDITION_DESCRIPTION: CHO-K1 cells expressing human SGLT1; 14C-AMG uptake
pIC50: −log10 of the molar value.
REPORTED_METRIC: pIC50

Please review the following examples before continuing.
# COMPOUND, pIC50
records = [
    ("Cc1cc(O)c([C@@H]2O[C@H](CO)[C@@](C)(F)[C@H](O)[C@H]2O)cc1Cc1cc2ccccc2s1 [Compound 1]", 6.70),
    ("C[C@]1(F)[C@H](O)[C@@H](O)[C@H](c2cc(Cc3cc4ccccc4s3)c(Cl)cc2O)O[C@@H]1CO [Compound 10]", 6.54),
    ("C[C@]1(F)[C@H](O)[C@@H](O)[C@H](c2cc(Cc3ccc4c(c3)OCCO4)c(Cl)cc2O)O[C@@H]1CO [Compound 3]", 6.57),
]

A = CCc1cc(O)c([C@@H]2O[C@H](CO)[C@@](C)(F)[C@H](O)[C@H]2O)cc1Cc1ccc(OC)cc1 [Compound 16]
B = Cc1cc(O)c([C@@H]2O[C@H](CO)[C@@](C)(F)[C@H](O)[C@H]2O)cc1Cc1ccc(OCF)cc1 (stereo in doubt) [Compound 23]
C = COc1cc(O)c([C@@H]2O[C@H](CO)[C@@](C)(F)[C@H](O)[C@H]2O)cc1Cc1ccc2c(c1)OCCO2 [Compound 6]
Number of compounds to sort: 3. Sort criterion: pIC50, ascending. List the labels in the requested order. B, A, C
(B: 6.50, A: 6.82, C: 7.43)

---

ASSAY_SYSTEM: human SGLT1 (Homo sapiens, UniProt P13866)
Construct: expressed in transfected cells
TEST: SGLT1 in vitro assay: Na-dependent 14C-AMG uptake in CHO-K1 cells stably expressing human SGLT1
Type: cell-based
CONDITION_DESCRIPTION: @ 0.3 μM; CHO-K1 cells stably expressing human SGLT1; 14C-AMG uptake
REPORTED_METRIC: SGLT1 % Inh @ 0.3 μM (%)

// worked examples, SGLT1 % Inh @ 0.3 μM included
# SMILES_DATA, ASSAY_SYSTEM, SGLT1 % Inh @ 0.3 μM, %
rows = [
    ("Cc1cc(O)c([C@@H]2O[C@H](CO)C(F)(F)[C@H](O)[C@H]2O)cc1Cc1cc2c(s1)CCN(C(=O)C1CCCC1)C2", "human SGLT1 (Homo sapiens, UniProt P13866)", 64.0),
    ("CCc1ccc(Cc2cc([C@@H]3O[C@H](CO)C(F)(F)[C@H](O)[C@H]3O)c(O)cc2C#N)cc1", "human SGLT1 (Homo sapiens, UniProt P13866)", 24.3),
]

I = COc1c([C@@H]2O[C@H](CO)C(F)(F)[C@H](O)[C@H]2O)cc(Cc2ccc(OCF)cc2)c2c1CCO2
II = CCc1ccc(Cc2cc([C@@H]3O[C@H](CO)C(F)(F)[C@H](O)[C@H]3O)c(OC)cc2Cl)cc1
Lower SGLT1 % Inh @ 0.3 μM: I or II ? Mark your selection by writing its label. II
(II: 16.5%, I: 24.7%)

---

ASSAY_SYSTEM: human SGLT1 (Homo sapiens)
Construct: expressed in transfected cells
Sequence (P13866 1-664): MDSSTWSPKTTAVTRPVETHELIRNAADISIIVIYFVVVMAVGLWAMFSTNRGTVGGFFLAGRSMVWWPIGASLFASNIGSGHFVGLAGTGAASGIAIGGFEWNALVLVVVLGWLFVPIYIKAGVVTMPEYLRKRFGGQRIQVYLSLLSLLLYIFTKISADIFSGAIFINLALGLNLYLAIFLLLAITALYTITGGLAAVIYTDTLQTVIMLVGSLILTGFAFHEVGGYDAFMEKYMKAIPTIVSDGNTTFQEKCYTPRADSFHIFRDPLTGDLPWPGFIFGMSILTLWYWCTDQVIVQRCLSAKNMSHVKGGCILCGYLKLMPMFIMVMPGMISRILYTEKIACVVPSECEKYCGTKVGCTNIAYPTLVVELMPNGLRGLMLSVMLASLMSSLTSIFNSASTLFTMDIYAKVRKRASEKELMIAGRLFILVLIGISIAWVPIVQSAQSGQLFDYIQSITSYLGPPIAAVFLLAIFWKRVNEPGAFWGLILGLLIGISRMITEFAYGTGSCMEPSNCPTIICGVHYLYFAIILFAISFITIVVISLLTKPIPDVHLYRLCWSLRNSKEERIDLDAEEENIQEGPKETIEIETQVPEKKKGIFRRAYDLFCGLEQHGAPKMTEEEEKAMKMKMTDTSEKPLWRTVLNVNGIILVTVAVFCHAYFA
TEST: SGLT1 in vitro assay: Na-dependent 14C-AMG uptake in CHO-K1 cells stably expressing human SGLT1
Format: cell-based
CONDITION_DESCRIPTION: CHO-K1 cells stably expressing human SGLT1; 14C-AMG uptake; compounds of formula (I) where R0 is fluoro
REPORTED_METRIC: IC50 (nM)

# SMILES_DATA, ASSAY_SYSTEM, IC50 [nM]
measured = [
    ("COc1cc(Cl)c(Cc2ccc(Cl)cc2)cc1[C@@H]1O[C@H](CO)C(F)(F)[C@H](O)[C@H]1O", "human SGLT1 (Homo sapiens)", 175),
]

a = COc1cc(Cl)c(Cc2ccc(C)cc2)cc1[C@@H]1O[C@H](CO)C(F)(F)[C@H](O)[C@H]1O
b = COc1cc(O)c([C@@H]2O[C@H](CO)C(F)(F)[C@H](O)[C@H]2O)cc1Cc1ccc(OCF)cc1
c = CCc1cc(O)c([C@@H]2O[C@H](CO)C(F)(F)[C@H](O)[C@H]2O)cc1Cc1ccc(OC)cc1
d = Cc1cc(O)c([C@@H]2O[C@H](CO)C(F)(F)[C@H](O)[C@H]2O)cc1Cc1ccc(OCF)cc1
e = CCc1ccc(Cc2cc([C@@H]3O[C@H](CO)C(F)(F)[C@H](O)[C@H]3O)c(OC)cc2OC)cc1
List items by IC50 in falling order. Put the labels in the order asked and list them. e, b, d, a, c
(e: 591 nM, b: 234 nM, d: 153 nM, a: 105 nM, c: 41 nM)

P = OC[C@H]1O[C@@H](c2cc(Cc3cc4ccccc4s3)c(Cl)cc2O)[C@H](O)[C@@H](O)C1(F)F
Q = OC[C@H]1O[C@@H](c2cc(Cc3ccc(C4CC4)cc3)c(Cl)cc2O)[C@H](O)[C@@H](O)C1(F)F
For the pair P and Q , which entry has the numerically smaller recorded IC50? Selection: enter the item's label. P
